target desc: IRAK4 (Homo sapiens, UniProt Q9NWZ3)
Construct: Degradation of IRAK4 in OCI-LY10 was quantitatively measured using Meso Scale Discovery technology; endogenous in cells; host or cells: OCI-LY10
Sequence (Q9NWZ3 whole entry): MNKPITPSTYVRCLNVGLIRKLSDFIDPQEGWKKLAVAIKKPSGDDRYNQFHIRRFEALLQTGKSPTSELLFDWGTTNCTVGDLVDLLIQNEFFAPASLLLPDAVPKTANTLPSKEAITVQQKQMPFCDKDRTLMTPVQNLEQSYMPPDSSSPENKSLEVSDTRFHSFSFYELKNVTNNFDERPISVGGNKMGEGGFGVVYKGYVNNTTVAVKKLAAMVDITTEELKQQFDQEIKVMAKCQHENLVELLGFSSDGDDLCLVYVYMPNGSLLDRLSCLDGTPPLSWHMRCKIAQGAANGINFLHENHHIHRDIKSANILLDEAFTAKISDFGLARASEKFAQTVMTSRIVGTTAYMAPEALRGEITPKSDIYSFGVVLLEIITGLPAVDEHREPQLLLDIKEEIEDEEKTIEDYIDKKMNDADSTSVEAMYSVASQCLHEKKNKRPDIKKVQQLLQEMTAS
assay text: IRAK4 MSD Degradation in OCI-LY10
Format: cell-based
particulars: OCI-LY10 cells, 24 hrs incubation, MSD; read-out: IRAK4 degradation in OCI-LY10 at 24 hrs: DC50
Method: Degradation of IRAK4 in OCI-LY10 was quantitatively measured using Meso Scale Discovery technology. […] Compounds were then added to the assay plates with a final top concentration of 1 to 10 μM in a 1:3 dilution series with total of 8 doses. […] The assay plates were then incubated at room temperature for 1 hour, washed 3 times with 150 μL/well TBST buffer, and 150 μL/well MSD reading buffer (Meso Scale Discovery catalog number R92TC-2) was added. […]
assay readout: DC50

Observe how each entry below is paired with its result.
compound	reported value
Cn1c(=O)n(C2CCC(=O)NC2=O)c2cccc([C@H]3C[C@H](O[C@H]4CCN(C[C@H]5CC[C@H](n6cc(NC(=O)c7cnn8ccc(N9C[C@H]%10C[C@@H]9CO%10)nc78)c(C(F)F)n6)CC5)C[C@@H]4F)C3)c21 (some centres unmarked) [I-595]	> 200 nM
Cc1ccc(-c2nn([C@H]3CC[C@H](CN4CCN(CC#Cc5cccc6c5n(C)c(=O)n6C5CCC(=O)NC5=O)CC4)CC3)cc2NC(=O)c2cnn3cccnc23)nc1 (some centres unmarked) [I-122]	10 to 100 nM
Cn1c(=O)n(C2CCC(=O)NC2=O)c2cccc(C#CCN3CCN(C[C@H]4CC[C@H](n5cc(NC(=O)c6cnn7ccc(N8CCOC(F)(F)C8)nc67)c(C(F)F)n5)CC4)CC3)c21 (some centres unmarked) [I-324]	> 200 nM

Please report DC50 for the following compound: O=C1CCN(c2cncc3cc(C4=CCN(C[C@H]5CC[C@H](n6cc7cc(NC(=O)c8cccc(C(F)(F)F)n8)ccc7n6)CC5)CC4(F)F)ccc23)C(=O)N1 [I-472]
> 200 nM

Please report DC50 for the following compound: COc1cc2nn([C@H]3CC[C@H](CN4CCC5(CC4)CCN(c4ccc(Cl)c(N6CCC(=O)NC6=O)c4)CC5)CC3)cc2cc1NC(=O)c1cncc(C#N)c1 [I-254]
> 200 nM
